system: SK-MEL-2; test: NCI tumour cell line growth inhibition, 48 h
Counter-ions that a name gives are not always drawn. The source made the active and inactive calls. No stated cut-off is given here; in the data, active = GI50 up to about 1.1 µM and inactive = higher.
PROPERTY: GI50

Look over these answered cases.
- COMPOUND: "Cc1ccc(S(=O)(=O)CC2(Br)CCc3ccccc3C2=O)cc1 (stereo not given)"
  GI50: "21.4 µM (inactive)"
- COMPOUND: "Cn1c(=O)c2c(nc3[nH]c(=O)c(Br)cn32)n(C)c1=O"
  GI50: "> 100 µM (inactive)"

stdin: Give measured GI50 for CC(C)CC(NC(=O)C(Cc1ccccc1)NC(=O)[C@H]1CC[C@H](NC(=O)C(Cc2ccc(OC(C)(C)C)cc2)NC(=O)OC(C)(C)C)C1)C(N)=O (stereo not given in full) (SK-MEL-2).
stdout: 20.2 µM (inactive)

stdin: Give measured GI50 for CN(C)CCCN1c2ccccc2Sc2ccc(C(F)(F)F)cc21 [TRIFLUPROMAZINE HYDROCHLORIDE] (SK-MEL-2).
stdout: 16 µM (inactive)

---

tested on: SNB-19; assay: NCI tumour cell line growth inhibition, 48 h
Calls of active or inactive are those of the source. Rule as the data show it: active = GI50 up to about 1.1 µM and inactive = higher.
PROPERTY: GI50

Look over these answered cases.
- COMPOUND: "CC1=C/C(=N/N2C(=O)/C(=C/c3ccc(Cl)cc3)N=C2c2ccccc2)CC(C)(C)C1"
  GI50: "65.5 µM (inactive)"
- COMPOUND: "O=C1OCC2OC(=O)c3cc(O)c(O)c(O)c3-c3c(O)c(O)c(O)c4c3C(=O)OC(C2OC(=O)c2cc(O)c(O)c(O)c2-c2c1cc(O)c(O)c2O)C1OC(=O)C2C4=C(O)C(=O)C23Oc2cc(O)c4c(c2[C@H]13)O[C@H](c1ccc(O)c(O)c1)[C@@H](O)C4 (stereo partly drawn)"
  GI50: "41.4 µM (inactive)"

// next item, GI50 requested
stdin: For the compound Cc1cc(Cl)ccc1NC(=O)CC1SC(NC(=O)c2ccccc2Cl)=NC1=O (stereo not drawn) , give its reported GI50.
stdout: > 100 µM (inactive)

---

GI50 values by entry
tested on: NCI-H23; assay: NCI tumour cell line growth inhibition, 48 h
Active and inactive are the calls of the source. Rule as the data show it: active = GI50 up to about 1.1 µM and inactive = higher.

Look over these answered cases.
- MOLECULE: "COc1ccc(/C=N/NC(=O)NCCNCCO)cc1"
  TESTED_SYSTEM: "NCI-H23"
  GI50: "> 100 µM (inactive)"
- MOLECULE: "Cc1ccc(/C=C/C(=O)c2sc(-c3cccnc3)nc2C)cc1"
  TESTED_SYSTEM: "NCI-H23"
  GI50: "> 100 µM (inactive)"
- MOLECULE: "COc1ccc2nc3cc(Cl)ccc3c(Nc3ccccc3-c3ccccc3Nc3c4ccc(Cl)cc4nc4ccc(OC)cc34)c2c1"
  TESTED_SYSTEM: "NCI-H23"
  GI50: "21.7 µM (inactive)"
- MOLECULE: "O=C(CCc1nnc2s/c(=C\\c3ccc4c(c3)OCO4)c(=O)n12)Nc1cc(Cl)ccc1Cl"
  TESTED_SYSTEM: "NCI-H23"
  GI50: "> 100 µM (inactive)"
- MOLECULE: "CC(=O)O/C(=C1\\C[C@H]2[C@@H]3CC=C4C[C@@H](OC(C)=O)CC[C@]4(C)[C@H]3CC[C@]2(C)C1=O)C(F)(F)F"
  TESTED_SYSTEM: "NCI-H23"
  GI50: "6.85 µM (inactive)"
- MOLECULE: "CCCN1CN(C(C(=O)N[C@@H]2C(=O)N3C(C(=O)O)=C(C)CSC23)c2ccc(O)cc2)CSC1=S (stereo not given in full)"
  TESTED_SYSTEM: "NCI-H23"
  GI50: "> 100 µM (inactive)"

// next item, GI50 requested
stdin: Give measured GI50 for COc1ccc(N2C(=O)C3c4[nH]c5ccc(OC)cc5c4C4CCC(C(C)C)CC4C3C2=O)cc1 (stereo not given) (NCI-H23).
stdout: > 100 µM (inactive)
